Numbers sourced from ChEMBL document CHEMBL5131390.

TESTED_ON: UniProt:Q9C0B1
Sequence (Q9C0B1 whole entry): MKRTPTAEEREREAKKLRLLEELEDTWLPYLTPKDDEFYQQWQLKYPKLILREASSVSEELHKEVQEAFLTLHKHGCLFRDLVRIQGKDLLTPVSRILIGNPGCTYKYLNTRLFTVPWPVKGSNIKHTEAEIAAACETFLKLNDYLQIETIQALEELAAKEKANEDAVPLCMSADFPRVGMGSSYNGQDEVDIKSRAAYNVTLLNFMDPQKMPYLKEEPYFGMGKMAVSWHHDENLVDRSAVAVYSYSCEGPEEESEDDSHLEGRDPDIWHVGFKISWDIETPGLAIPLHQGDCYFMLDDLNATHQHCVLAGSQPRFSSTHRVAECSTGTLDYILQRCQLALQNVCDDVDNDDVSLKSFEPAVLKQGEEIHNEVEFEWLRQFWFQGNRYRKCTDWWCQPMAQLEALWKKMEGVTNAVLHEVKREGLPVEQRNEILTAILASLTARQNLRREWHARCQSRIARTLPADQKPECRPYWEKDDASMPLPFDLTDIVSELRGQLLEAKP
pIC50: −log10 of the molar value.
MEASUREMENT_KIND: pIC50

COMPOUND_SMILES	RECORDED_VALUE
Cc1c(Nc2ccncc2C(=O)NNC(=O)/C=C/C(=O)O)cc(Cl)c(Nc2ccccc2[N+](=O)[O-])c1Cl	7.06

---

TESTED_ON: UniProtKB Q6P6C2
Sequence (Q6P6C2 whole entry): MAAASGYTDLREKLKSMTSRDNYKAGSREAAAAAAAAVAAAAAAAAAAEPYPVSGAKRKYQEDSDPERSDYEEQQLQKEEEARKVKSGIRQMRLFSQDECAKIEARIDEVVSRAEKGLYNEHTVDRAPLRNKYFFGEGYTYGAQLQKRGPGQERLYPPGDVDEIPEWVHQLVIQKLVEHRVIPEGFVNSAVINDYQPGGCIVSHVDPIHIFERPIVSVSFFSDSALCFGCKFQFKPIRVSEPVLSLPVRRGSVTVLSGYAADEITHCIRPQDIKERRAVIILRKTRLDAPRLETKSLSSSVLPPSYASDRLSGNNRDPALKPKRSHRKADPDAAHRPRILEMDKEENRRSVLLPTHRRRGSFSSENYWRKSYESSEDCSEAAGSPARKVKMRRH
MEASUREMENT_KIND: IC50

COMPOUND_SMILES	TESTED_ON	RECORDED_VALUE
O=C(O)/C=C/C(=O)NNC(=O)c1cnccc1Nc1cc(Cl)c(Nc2ccccc2[N+](=O)[O-])c(Cl)c1	UniProtKB Q6P6C2	7.13 µM
